ASSAY METHOD TEXT: recombinant barcode read abundance after kanamycin selection (control-corrected) (log10(CPM+1)); higher = more efficient recombination; sequences stand for … in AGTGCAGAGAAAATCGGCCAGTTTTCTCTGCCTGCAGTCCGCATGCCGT…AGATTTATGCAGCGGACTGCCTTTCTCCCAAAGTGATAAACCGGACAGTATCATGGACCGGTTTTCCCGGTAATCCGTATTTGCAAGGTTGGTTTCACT; site = the 11-nt target
Please enter true (1) where recombinant barcode read abundance (log10) is greater than or equal to 0.04, and false (0) where it is lower.

- SEQUENCE CHAIN: "CACGAGTCTTGGGTTCTAACCTGTTGCCT (site CACGAGGCTAG)"
  ASSIGNED CLASS: "true (1)"

Check this sequence for recombinant barcode read abundance (log10) at or above 0.04: GCACTCTCTTGGGTTCTAACCTGTTGCCT (site GCACCCTCTAG)
true (1)

Hello, I need to know if ACTAACCCTTGGGTTCTAACCTGTTGCCT (site AATAACCCTAG) has measured recombinant barcode read abundance (log10) not below 0.04. Thanks!
true (1)

* * *

ASSAY METHOD TEXT: recombinant UMI read abundance after kanamycin selection (control-corrected) (log10(CPM+1)); higher = more efficient recombination; extreme values may be limits of the assay; sequences stand for … in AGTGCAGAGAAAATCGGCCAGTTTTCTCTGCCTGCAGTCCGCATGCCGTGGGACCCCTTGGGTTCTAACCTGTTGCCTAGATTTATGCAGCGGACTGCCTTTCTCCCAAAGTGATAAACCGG…AGGTTGGTTTCACT; site = the 11-nt donor
PROPERTY NAME: recombinant UMI read abundance (log10)
Numbers only.

- SEQUENCE CHAIN: "CGGTATCCATGGACCGGTTTTCCCGGTAATCCGTATTTGCG (site CGGTATCCTCG)"
  PROPERTY NAME: "recombinant UMI read abundance (log10)"
  READOUT NUMBER: 0.378
- SEQUENCE CHAIN: "CACTCCACATGGACCGGTTTTCCCGGTAATCCGTATTTGCC (site CACTCCGCTGG)"
  PROPERTY NAME: "recombinant UMI read abundance (log10)"
  READOUT NUMBER: 1.8
- SEQUENCE CHAIN: "TCTAGAACATGGACCGGTTTTCCCGGTAATCCGTATTTGAG (site TCTAGAACTCT)"
  PROPERTY NAME: "recombinant UMI read abundance (log10)"
  READOUT NUMBER: 0.00301

Consider now this further sequence.
Entry GTATCCACATGGACCGGTTTTCCCGGTAATCCGTATTTGTA (site GTATGCACTTA) has what recombinant UMI read abundance (log10)?
0.019

* * *

ASSAY METHOD TEXT: recombinant UMI read abundance after kanamycin selection (control-corrected) (log10(CPM+1)); higher = more efficient recombination; extreme values may be limits of the assay; sequences stand for … in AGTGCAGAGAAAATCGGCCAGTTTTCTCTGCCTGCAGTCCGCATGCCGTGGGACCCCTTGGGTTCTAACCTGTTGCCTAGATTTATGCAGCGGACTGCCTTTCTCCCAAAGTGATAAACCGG…AGGTTGGTTTCACT; site = the 11-nt donor
PROPERTY NAME: recombinant UMI read abundance (log10)
One number for each entry.

Use these answered entries as a reference point.
- SEQUENCE CHAIN: "AAAGTGTCATGGACCGGTTTTCCCGGTAATCCGTATTTGAC (site AAAGTGTCTGT)"
  recombinant UMI read abundance (log10): 2.37
- SEQUENCE CHAIN: "GGAGTAGCATGGACCGGTTTTCCCGGTAATCCGTATTTGTC (site GGAGTAGCTGA)"
  recombinant UMI read abundance (log10): 1.98
- SEQUENCE CHAIN: "CAATTCCCATGGACCGGTTTTCCCGGTAATCCGTATTTGAT (site CAATTCCCTAG)"
  recombinant UMI read abundance (log10): 0
- SEQUENCE CHAIN: "ACAGCTACATGGACCGGTTTTCCCGGTAATCCGTATTTGTG (site ACAGCTACTCA)"
  recombinant UMI read abundance (log10): 1.44
- SEQUENCE CHAIN: "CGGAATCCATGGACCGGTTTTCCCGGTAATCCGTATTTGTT (site TGGACTCCTAA)"
  recombinant UMI read abundance (log10): 0.027

Give recombinant UMI read abundance (log10) for each of the items listed below.
1. TAAGTTTCATGGACCGGTTTTCCCGGTAATCCGTATTTGGA (site TAAGTTTCTTC)
2. CAGGAATCATGGACCGGTTTTCCCGGTAATCCGTATTTGCG (site TAGGAATCTCG)
3. CGTTTGGCATGGACCGGTTTTCCCGGTAATCCGTATTTGCT (site CGCTTGGCTAG)
4. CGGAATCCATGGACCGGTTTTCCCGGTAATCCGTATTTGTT (site CGTTATCCTAA)
5. CATGCAGCATGGACCGGTTTTCCCGGTAATCCGTATTTGCT (site CATGCAGCTAG)

[2.13, 2.69, 0, 0.00294, 1.97]

Give me recombinant UMI read abundance (log10) for each of these sequences, listed below.
1. CAGAAGCCATGGACCGGTTTTCCCGGTAATCCGTATTTGTT (site CAGAAGCCTAA)
2. TAAAATCCATGGACCGGTTTTCCCGGTAATCCGTATTTGTA (site TAAATTCCTTA)
3. AGATCCGCATGGACCGGTTTTCCCGGTAATCCGTATTTGGT (site AGATCCGCTAC)

1: 1.14; 2: 0; 3: 0.811

Using the record for CGTGAGACATGGACCGGTTTTCCCGGTAATCCGTATTTGAG (site CGTGAGACTCT) , report its recombinant UMI read abundance (log10).
2.08
